- System: Klebsiella pneumoniae
- testSummary: Antimicrobial activity against multidrug-resistant Klebsiella pneumoniae isolate Kpn-DK2 by broth microdilution method
- Format: functional
measuredAttribute: MIC

Consider the reported MIC for these molecules:
C[C@@H](O)[C@H]1C(=O)N2C(C(=O)O)=C(SCCNC=N)C[C@H]12 [IMIPENEM ANHYDROUS]
32 mg/L
CN(C)c1cc(NC(=O)CNC(C)(C)C)c(O)c2c1C[C@H]1C[C@H]3[C@H](N(C)C)C(O)=C(C(N)=O)C(=O)[C@@]3(O)C(O)=C1C2=O [TIGECYCLINE]
4 mg/L

Query: Quick one: MIC for COc1cc(Cc2cnc(N)nc2N)cc(OC)c1OC [TRIMETHOPRIM] ?
Result: > 32 mg/L

Query: Quick one: MIC for C[C@]1(Cn2ccnn2)[C@H](C(=O)O)N2C(=O)C[C@H]2S1(=O)=O [TAZOBACTAM] ?
Result: 4 mg/L

Query: Quick one: MIC for CC(C)(O/N=C(\C(=O)N[C@@H]1C(=O)N2C(C(=O)[O-])=C(C[n+]3ccccc3)CS[C@H]12)c1csc(N)n1)C(=O)O [CEFTAZIDIME] ?
Result: > 64 mg/L

Query: Quick one: MIC for Nc1nc(/C(=N/O)C(=O)N[C@@H]2C(=O)N3C(C(=O)O)=C(/C=C4\CCN([C@@H]5CCNC5)C4=O)CS[C@H]23)ns1 [CEFTOBIPROLE] ?
Result: > 32 mg/L

Query: Quick one: MIC for C[C@H]1[C@H](NC(=O)/C(=N\OC(C)(C)C(=O)O)c2csc(N)n2)C(=O)N1S(=O)(=O)O [AZTREONAM] ?
Result: > 64 mg/L

Query: Quick one: MIC for CCN1CCN(C(=O)N[C@@H](C(=O)N[C@@H]2C(=O)N3[C@@H]2SC(C)(C)[C@@H]3C(=O)O)c2ccccc2)C(=O)C1=O [PIPERACILLIN] ?
Result: > 256 mg/L

Query: Quick one: MIC for CO/N=C(\C(=O)N[C@@H]1C(=O)N2C(C(=O)[O-])=C(C[N+]3(C)CCCC3)CS[C@H]12)c1csc(N)n1 ?
Result: > 64 mg/L

Query: Quick one: MIC for C[C@@H](O)[C@H]1C(=O)N2C(C(=O)O)=C(S[C@@H]3CN[C@H](CNS(N)(=O)=O)C3)[C@H](C)[C@H]12 [DORIPENEM] ?
Result: 16 mg/L

====

- Test system: Klebsiella pneumoniae
- testSummary: Antimicrobial activity against multidrug-resistant Klebsiella pneumoniae isolate Kpn-DK2 by broth microdilution method
- Format: functional
Below, each entry is listed alongside its reported MIC.

Consider the reported MIC for these compounds:
CO/N=C(\C(=O)N[C@@H]1C(=O)N2C(C(=O)O)=C(COC(C)=O)CS[C@H]12)c1csc(N)n1 [CEFOTAXIME]
> 128 µg/mL
CC1(C)S[C@@H]2[C@H](NC(=O)[C@H](N)c3ccccc3)C(=O)N2[C@H]1C(=O)O [AMPICILLIN]
> 64 µg/mL
CC1(C)[C@H](C(=O)O)N2C(=O)C[C@H]2S1(=O)=O [SULBACTAM]
32 µg/mL

With those in mind, consider the next compound.
Query: Quick one: MIC for CCN1CCN(C(=O)N[C@@H](C(=O)N[C@@H]2C(=O)N3C(C(=O)O)=C(CSc4nnnn4C)CS[C@H]23)c2ccc(O)cc2)C(=O)C1=O [CEFOPERAZONE] ?
Result: > 64 µg/mL
